Hey, just so you know, these numbers are from patent US10683297B2.

# experiment notes: Pharmacokinetics after intravenous and oral administration in rats
# Assay type: in vivo
# applied conditions: rat, plasma, iv dosing, dose 1 mg/kg (Ex. 9: 0.6, Ex. 18: 0.5, Ex. 50: 0.96 mg/kg), read-out: Vss

compound	units	Vd
CCC1CN(c2ccc(C#N)cn2)CCC1Nc1nc(Nc2ccn3c(C)nnc3c2)ncc1Cl (stereo not drawn)	L/kg	0.67
Cc1cnc2cc(Nc3ncc(Cl)c(NC4CCN(c5ccc(C#N)cn5)CC4)n3)cnn12	L/kg	0.84
N#Cc1ccc(N2CCC(Nc3nc(Nc4cnn5ccnc5c4)ncc3Cl)CC2)nc1	L/kg	0.5
N#Cc1ccc(N2CCC(Nc3nc(Nc4ccn5cc(C(F)F)nc5c4)ncc3Cl)CC2)nn1	L/kg	0.56
CC(C)(O)Cc1nc2cc(Nc3ncc(Cl)c(NC4CCN(c5ccc(C#N)nn5)CC4)n3)ccn2n1	L/kg	0.623
CC(C)(O)Cc1nc2ccc(Nc3ncc(Cl)c(NC4CCN(c5ccc(C#N)nn5)CC4)n3)cn2n1	L/kg	1.23
CC(C)(O)c1cn2ccc(Nc3ncc(Cl)c(NC4CCN(c5ccc(C#N)cn5)CC4)n3)cc2n1	L/kg	1.39
CC(O)Cn1ccc2cc(Nc3ncc(Cl)c(NC4CCN(c5ccc(C#N)cn5)CC4)n3)cnc21 (stereo not drawn)	L/kg	0.95
CCC1CN(c2ccc(C#N)cn2)CCC1Nc1nc(Nc2ccn3c(C)cnc3c2)ncc1Cl (stereo not drawn)	L/kg	0.73
N#Cc1ccc(N2CCC(Nc3nc(Nc4ccn5c(C(F)F)nnc5c4)ncc3Cl)CC2)nc1	L/kg	0.61
CC(C)(O)c1nc2cc(Nc3ncc(Cl)c(NC4CCN(c5ccc(C#N)cc5)CC4)n3)ccn2n1	L/kg	0.946
CC(C)(O)Cc1nc2cc(Nc3ncc(Cl)c(NC4CCN(c5ccc(C#N)cn5)CC4)n3)ccn2n1	L/kg	0.795
Cn1cnc2cc(Nc3ncc(Cl)c(NC4CCN(c5ccc(C#N)cn5)CC4)n3)ccc21	L/kg	0.42
CC(C)(O)c1cnc2cc(Nc3ncc(Cl)c(NC4CCN(c5ccc(C#N)cn5)CC4)n3)ccn12	L/kg	1.51
Cc1nc2ccc(Nc3ncc(Cl)c(NC4CCN(c5ccc(C#N)nn5)CC4)n3)cn2n1	L/kg	1.53
Cc1cnc2cc(Nc3ncc(Cl)c(NC4CCN(c5ccc(C#N)cn5)CC4)n3)ccn12	L/kg	1.68
CC(C)(O)Cc1nc2ccc(Nc3ncc(Cl)c(NC4CCN(c5ccc(C#N)cn5)CC4)n3)cn2n1	L/kg	1.25
Cc1nc2cc(Nc3ncc(Cl)c(NC4CCN(c5ccc(C#N)cn5)CC4)n3)ccc2n1C	L/kg	0.89
CC(C)(O)c1nc2cc(Nc3ncc(Cl)c(NC4CCN(c5ccc(C#N)nn5)CC4F)n3)ccn2n1 (stereo not drawn)	L/kg	0.688
CCC1CN(c2ccc(C#N)cn2)CCC1Nc1nc(Nc2ccn3cnnc3c2)ncc1Cl (stereo not drawn)	L/kg	0.56
Cc1nc2cc(Nc3ncc(Cl)c(NC4CCN(c5ccc(C#N)nn5)CC4)n3)ccc2n1C	L/kg	0.56
Cc1cn2ncc(Nc3ncc(Cl)c(NC4CCN(c5ccc(C#N)cn5)CC4)n3)cc2n1	L/kg	0.83
CC(C)(O)Cn1nnc2cc(Nc3ncc(Cl)c(NC4CCN(c5ccc(C#N)cn5)CC4)n3)ccc21	L/kg	1.7
CCC1CN(c2ccc(C#N)cn2)CCC1Nc1nc(Nc2ccn3ccnc3c2)ncc1Cl (stereo not drawn)	L/kg	0.76
Cn1nnc2cc(Nc3ncc(Cl)c(NC4CCN(c5ccc(C#N)nn5)CC4)n3)ccc21	L/kg	0.87
CN(c1nc(Nc2ccc3ncnn3c2)ncc1Cl)C1CCN(c2ccc(C#N)cn2)CC1	L/kg	1.13
CC(C)(O)c1nc2cc(Nc3ncc(Cl)c(NC4CCN(c5ccc(C#N)cn5)CC4)n3)ccn2n1	L/kg	1.25
